Reference source: a melting point compilation (Tetko et al.; mined from patent text by program, amines drawn as free bases though some values may be those of a salt)

measurement.kind: melting point

> print(dat)
                                    compound  recorded.result
 1            Nc1nc2ccc(OCc3c(F)cccc3F)cc2s1           178 °C
 2  COC(=O)C1Cc2sc3c(c2C1)C(c1ccccc1Cl)=NCC(N(C)C1(C)OCCO1)=N3 (stereo not given)    166 to 168 °C
 3            COC(=O)c1ccc(C=O)cc1SCc1ccccc1      91 to 93 °C
 4  CCCNCc1nc(-c2ncn3c2[C@@H]2CCN2C(=O)c2c(Cl)cccc2-3)no1    237 to 239 °C
 5       CCOc1ccccc1Nc1ncc(C(=O)O)c(=O)[nH]1    226 to 228 °C
 6  CC(c1ccccc1)n1ncc(-c2nc(-c3ccco3)n[nH]2)c1N (stereo not given)    175 to 176 °C
 7  C=CC(Cc1ccccc1)(C(=O)O)N(Cc1ccccc1)C(=O)OCc1ccccc1 (stereo not given)      68 to 70 °C
 8  Cc1cc2n(n1)C(c1cccc([N+](=O)[O-])c1)N=N2 (stereo not given)    269 to 275 °C
 9  NC(=O)[C@H](NCc1ccccc1)[C@@H]1CSC(=O)N1Cc1ccccc1    194 to 195 °C
10  O=C(C[C@@H]1COCCO1)N[C@H]1CC[C@H](CCN2CCN(c3nccc4c3CCO4)CC2)CC1           192 °C

* * *

# key: entry, value: melting point
measurement.kind: melting point

> print(dat)
                                   molecule  recorded.result
1    CCCOc1ccccc1-c1nc2nc(NC)ncc2c(=O)[nH]1    235 to 236 °C
2  CC(=O)N1CC(CCN2CCC(c3ccc(C(F)(F)F)cc3)CC2)c2ccccc21 (stereo not given)     98 to 100 °C
3             CCCCCC(=N)NC(=S)Nc1ccc(Cl)cc1    100 to 102 °C
4   CN(C)C=Nn1cc(-c2ccc([N+](=O)[O-])o2)nn1    239 to 241 °C
5  Cn1nnc(Cc2ccc(NC(=O)/C=C/c3cnn(C)c3-c3ccc(F)cc3)cc2)n1    159 to 161 °C

* * *

melting point for assorted molecules
measurement.kind: melting point

> print(dat)
                                    molecule  measurement.kind  recorded.result
 1  O=[N+]([O-])c1ccc(-c2cnc(Nc3ccc(Oc4ccccc4)cc3)s2)cc1     melting point    191 to 196 °C
 2                   CCc1nn(C)c(CC)c1NC(N)=S     melting point    234 to 235 °C
 3  CCCOc1ccc2cc(-c3ccc4c(c3)C=C(C(=O)Nc3ccc(CN(C)C5CCOCC5)cc3)CCS4(=O)=O)oc2c1     melting point    215 to 216 °C
 4  O=C1OCCC12Sc1ccc(S(=O)(=O)N3CCCCC3)cc1C2=O (stereo not given)     melting point    159 to 161 °C
 5  CCOCc1nc2c(N)nc3ccccc3c2n1CCCc1cc(-c2cccnc2)no1     melting point    199 to 200 °C
 6         CC(=O)N[C@H]1CC[C@H](CCC(=O)O)CC1     melting point    193 to 196 °C
 7                         Cc1ccc(S)c(C=O)c1     melting point    181 to 184 °C
 8  Cc1cc(-c2nc3ccccc3c(=O)n2-c2ccc(I)cc2)cc(C)c1OCCO     melting point    101 to 103 °C
 9         O=C(Nc1cccc(OCc2cccnc2)c1)N1CCCC1     melting point    138 to 140 °C
10  O=C1NCCN1c1ccc(F)cc1N1CCN(C/C=C/c2ccc(Cl)cc2)CC1     melting point    170 to 172 °C

* * *

measurement.kind: melting point

> print(dat)
                                    compound  recorded.result
 1      O=C1c2cc(Cl)ccc2N(N2CCCCC2)C2=NCCN12    192 to 193 °C
 2  OC[C@@H]1Cc2ccccc2CN1C(=S)Nc1cccc2cnccc12           190 °C
 3      Nc1ccc(C(=O)c2ccncc2)cc1[N+](=O)[O-]    294 to 295 °C
 4  c1ccc(C(CC2=NCCN2)c2ccncc2)cc1 (stereo not given)    105 to 107 °C
 5                CCCS(=O)(=O)N(C)CCc1ccncc1    109 to 110 °C
 6  O=C(O)CCc1ccc(C(=O)c2c(-c3ccc(O)cc3)sc3cc(O)ccc23)cc1    244 to 248 °C
 7  O=C(N[C@@H](CSC(=O)c1ccccc1)C(=O)O)c1ccccc1    183 to 185 °C
 8      O=c1ccccn1CC1(O)CCN(Cc2ccc(F)cc2)CC1    154 to 156 °C
 9  COc1cc2c(cc1Nc1ncc(Cl)c(Nc3ccccc3S(=O)(=O)C(C)C)n1)CCN(CC(=O)N1CCN(C)CC1)CC2           170 °C
10        CCOC(=O)c1cc(C)cc([N+](=O)[O-])c1O            97 °C
11  O=C(Nc1cccnc1S(=O)(=O)c1ccc(Cl)cc1)N[C@@H](Cc1ccc(NC(=O)c2c(Cl)cccc2Cl)cc1)C(=O)O           181 °C
12     Cc1cc(-n2nc(C(N)=O)nc2-c2ccccc2)ccc1F    123 to 126 °C
13           O=c1[nH]c2ccc(F)cc2c2cc(CO)nn12    295 to 297 °C
14  CC(NC(=O)CCCCCCCCC#CC#CCCCCCCCCC(=O)NC(C)c1ccccc1)c1ccccc1 (stereo not given)    87.5 to 89 °C
15                     Nc1nccnc1C(=O)N1CCCC1    100 to 105 °C
16  CCn1nc(-c2c(-c3ccccc3)nn3ccc(OC)cc23)ccc1=O    148 to 149 °C
17             Cc1ccccc1NC(=O)c1c(Cl)cccc1Cl           182 °C
18  COCOc1ccc(C=CC(=O)c2ccc(OCc3ccccc3)cc2O)c(OCc2ccccc2)c1    147 to 148 °C
19  CC(=O)N1CCc2cc(C(O)CN(Cc3ccccc3)Cc3ccccc3)ccc21 (stereo not given)           116 °C
20  Cc1cc(CNC(=O)c2nc3ccc(F)c(OCCc4ccc(C(=O)O)cc4)c3c(=O)[nH]2)ccc1F    267 to 268 °C

* * *

measurement.kind: melting point

> print(dat)
                                   compound  recorded.result
1  OC(COCc1ccccc1)C(O)COCc1ccccc1 (single isomer, unassigned; (+))      44 to 45 °C
2  CSc1ccc(C=C2C(=O)c3ccccc3CC2OCCn2ccnc2)cc1 (centres undefined)    161 to 162 °C
3  CCCCCCCCC(SCCCCCC)C(=O)Nc1c(OC)cc(Cl)c2ncccc12 (centres undefined)    110 to 111 °C
4     CCOC(=O)C=C(C)c1ccc(-c2ccc(F)cc2F)cc1      54 to 56 °C
5  O=C(Nc1cccnc1)N1CCC(=C2c3ccc(Cl)cc3C=Cc3cccnc32)CC1  95.9 to 97.6 °C
6  CC(C)(C)c1cc(CCc2ccccc2NC(=O)NC2CCN(Cc3ccccc3)CC2)cc(C(C)(C)C)c1O      79 to 81 °C
7              CC(C)c1cccc(C(C)C)c1OCC(=O)O      84 to 87 °C
8  O=C(Nc1ccncc1)c1c(OCC2CC2)ccc2oc3ccccc3c12    243 to 244 °C
9                   Cn1nc(-c2cccs2)n(C)c1=S    128 to 129 °C

* * *

Here the recorded melting point is given for each entry.
measurement.kind: melting point

> print(dat)
                                    compound  recorded.result
 1  O=C(c1c[nH]c2cc(OCc3ccc(F)cc3)ccc12)C1CSC(c2cccnc2)N1 (stereo not given)    185 to 186 °C
 2            CCOC(=O)c1cn(CC)c2nn(C)cc2c1=O    170 to 172 °C
 3  O=C(c1ccc(Cl)cc1)c1c(CN2CCN(c3ccccc3)CC2)csc1N1C(=O)c2ccccc2C1=O    220 to 222 °C
 4  CCCC1OCC(C)n2c1nc1c(N)nc3ccccc3c12 (stereo not given)    243 to 268 °C
 5  CC(C)(O)CCNC(=O)c1n[nH]cc1NC(=O)c1ccccn1    193 to 194 °C
 6  Nc1c(Cl)cc(C(O)CNCCCCCCOCCCCc2ncccc2O)cc1Cl (stereo not given)      95 to 96 °C
 7  COc1cc(C#C[Si](C)(C)C)c(OC)cc1C#C[Si](C)(C)C    164 to 165 °C
 8  CN(C)CCC1(c2ccccc2)Cc2ccccc2C(=O)O1 (stereo not given)    95 to 95.5 °C
 9         CCOc1ccc(C=[N+]([O-])C2CCCCC2)cc1           124 °C
10  CCC(=O)Oc1cc(OC)cc(OC)c1C(=O)C=Cc1ccc(C)cc1           156 °C
